System: ADCYAP1R1 (Homo sapiens, UniProt P41586)
Construct: purchased Promega (in-house HiBiT-GPCR construct library, NanoBRET)
Sequence (P41586 21-468): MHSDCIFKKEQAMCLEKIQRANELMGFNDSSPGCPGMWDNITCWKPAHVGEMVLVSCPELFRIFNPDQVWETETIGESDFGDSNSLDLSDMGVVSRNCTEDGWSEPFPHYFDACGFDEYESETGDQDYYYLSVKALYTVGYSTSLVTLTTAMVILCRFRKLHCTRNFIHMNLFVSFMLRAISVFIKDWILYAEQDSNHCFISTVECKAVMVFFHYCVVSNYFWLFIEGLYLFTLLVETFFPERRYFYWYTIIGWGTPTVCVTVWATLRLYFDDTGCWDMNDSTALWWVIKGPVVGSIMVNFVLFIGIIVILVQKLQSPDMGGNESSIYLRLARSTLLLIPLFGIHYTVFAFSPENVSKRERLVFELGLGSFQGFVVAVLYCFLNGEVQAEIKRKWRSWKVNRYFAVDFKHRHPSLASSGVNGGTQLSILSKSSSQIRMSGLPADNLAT
Assay Method Text: NanoBRET screen HiBiT-ADCYAP1R1 in HEK293
Format: binding
Experimental Parameters: ADCYAP1R1; tracer 0.1μM
Readout Kind: NanoBRET Fold Response
Write the value as a bare number.

Examples with answers:
// recorded NanoBRET Fold Response for O=C(CCc1ccc2n1[B-](F)(F)[N+]1=C(c3ccc[nH]3)C=CC1=C2)NCc1ccc(C(=O)NCCOCCC(=O)N[C@@H]2CC[C@@]3(O)[C@H]4Cc5ccc(O)c6c5[C@@]3(CCN4CC3CC3)[C@H]2O6)cc1 [Naltrexone-3-NB590] : 0.88

// recorded NanoBRET Fold Response for O=C(CCOCCOCCOCCOCCNC(=O)CCc1ccc2n1[B-](F)(F)[N+]1=C(c3ccc[nH]3)C=CC1=C2)NCCCN1CCN(C2=Nc3ccccc3Oc3ccc(Cl)cc32)CC1 [Loxapine-a-2-NB590] : 1.03

// recorded NanoBRET Fold Response for COc1ccccc1N1CCN(CCCCN2C(=O)c3ccc(CNC(=O)CCOCCNC(=O)c4ccc(CNC(=O)CCc5ccc6n5[B-](F)(F)[N+]5=C(c7ccc[nH]7)C=CC5=C6)cc4)cc3C2=O)CC1 [NAN-190-3-NB590] : 1.25

// recorded NanoBRET Fold Response for CCCn1c(=O)c2[nH]c(-c3ccc(OCC(=O)NCCNC(=O)CCOCCNC(=O)c4ccc(CNC(=O)CCc5ccc6n5[B-](F)(F)[N+]5=C(c7ccc[nH]7)C=CC5=C6)cc4)cc3)nc2n(CCC)c1=O [XAC-3-NB590] : 0.98

// recorded NanoBRET Fold Response for Cc1nc2n(c(=O)c1CCN1CCC(c3noc4cc(F)ccc34)CC1)CCCC2OC(=O)NCCOCCOCCOCCOCCNC(=O)CCc1ccc2n1[B-](F)(F)[N+]1=C(c3ccc[nH]3)C=CC1=C2 (stereo not shown) [Risperidone-2-NB590] : 0.99

Further cases:
// recorded NanoBRET Fold Response for CC(C)N(CC[C@H](c1ccccc1)c1cc(CCNC(=O)c2ccc(CNC(=O)CCc3ccc4n3[B-](F)(F)[N+]3=C(c5ccc[nH]5)C=CC3=C4)cc2)ccc1O)C(C)C [Tolterodine-BZ-NB590] : 1.04

// recorded NanoBRET Fold Response for CN(C)CCC=C1c2ccccc2CCc2ccc(C(=O)NCCNC(=O)CCOCCOCCOCCOCCNC(=O)CCc3ccc4n3[B-](F)(F)[N+]3=C(c5ccc[nH]5)C=CC3=C4)cc21 [Amitriptyline-b-2-NB590] : 0.99
